# measurement.target: carbonic anhydrase II isoenzyme (hCA II) (Homo sapiens, UniProt P00918)
# Construct: Human erythrocytes were used as the CA II isoenzyme source; from tissue; host or cells: human erythrocytes
# experimental.details: CA II inhibition (esterase activity)
# Format: biochemical

{"columns": ["query.smiles", "IC50 / nM"],
 "data": [
  ["O=c1oc2cc(O)ccc2c2oc3cc(O)ccc3c12", 44]
]}

----------
# measurement.target: UniProtKB O42275
# Sequence (O42275 24-633): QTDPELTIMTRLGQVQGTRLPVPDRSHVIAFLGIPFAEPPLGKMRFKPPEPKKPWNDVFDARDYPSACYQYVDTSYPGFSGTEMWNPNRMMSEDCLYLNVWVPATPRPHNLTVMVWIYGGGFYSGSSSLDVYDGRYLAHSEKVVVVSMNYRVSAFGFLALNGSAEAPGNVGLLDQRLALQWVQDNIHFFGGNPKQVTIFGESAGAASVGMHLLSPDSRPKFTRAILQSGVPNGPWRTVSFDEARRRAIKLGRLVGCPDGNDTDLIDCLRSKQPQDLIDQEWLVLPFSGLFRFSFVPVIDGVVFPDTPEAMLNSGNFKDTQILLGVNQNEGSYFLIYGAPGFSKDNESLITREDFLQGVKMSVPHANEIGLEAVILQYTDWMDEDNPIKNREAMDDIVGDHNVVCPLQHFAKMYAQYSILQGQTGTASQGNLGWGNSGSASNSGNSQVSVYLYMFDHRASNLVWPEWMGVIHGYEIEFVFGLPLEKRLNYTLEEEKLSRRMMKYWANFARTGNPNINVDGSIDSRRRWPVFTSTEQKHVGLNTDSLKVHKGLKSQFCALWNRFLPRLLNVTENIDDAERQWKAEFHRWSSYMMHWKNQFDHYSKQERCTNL
# experimental.details: biochemical
value.kind: IC50

{"columns": ["query.smiles", "result"],
 "data": [
  ["O=c1oc2cc(O)ccc2c2oc3cc(O)ccc3c12", "21.1 nM"]
]}
